biological target: NK3 (Homo sapiens); assay: Signal transduction (ST), intracellular Ca++ FLIPR, NK3; type: cell-based; conditions: antagonist, read-out: NK3 pIC50 (converted)
Sequence (P29371 whole entry): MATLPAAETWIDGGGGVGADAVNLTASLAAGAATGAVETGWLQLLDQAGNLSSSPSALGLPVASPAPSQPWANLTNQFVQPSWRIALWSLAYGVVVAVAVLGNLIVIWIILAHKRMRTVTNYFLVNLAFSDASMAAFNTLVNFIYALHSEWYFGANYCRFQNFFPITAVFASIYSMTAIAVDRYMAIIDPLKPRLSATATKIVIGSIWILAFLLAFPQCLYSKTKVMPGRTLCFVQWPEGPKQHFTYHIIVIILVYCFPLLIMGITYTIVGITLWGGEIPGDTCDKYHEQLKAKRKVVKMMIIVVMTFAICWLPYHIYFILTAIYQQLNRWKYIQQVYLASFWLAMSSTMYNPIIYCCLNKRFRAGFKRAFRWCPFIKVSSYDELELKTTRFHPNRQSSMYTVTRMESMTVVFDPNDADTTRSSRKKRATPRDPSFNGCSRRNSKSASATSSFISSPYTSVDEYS
measure: IC50 (µM)
Output spec: scalar in µM, unitless text.

- molecule: "CCC(CC)CN1CCC2(CCN(C3CCN(C(=O)c4cc(C(F)(F)F)cc(C(F)(F)F)c4)C(Cc4ccccc4)C3)CC2)OC1=O (single isomer, unassigned) [Compound 2.3]"
  IC50, µM: 5.01
- molecule: "O=C(c1ccoc1)N1CCC2(CC1)CCN(C1CCN(C(=O)c3cc(C(F)(F)F)cc(C(F)(F)F)c3)C(Cc3ccccc3)C1)C(=O)O2 (centres unmarked)"
  IC50, µM: 0.126
- molecule: "CC(C)(C)CN1CCC2(CCN(C3CCN(C(=O)c4cc(C(F)(F)F)cc(C(F)(F)F)c4)C(Cc4ccccc4)C3)CC2)OC1=O (single isomer, unassigned)"
  IC50, µM: 3.98
- molecule: "Cc1ccccc1CN1CCC2(CCN(C3CCN(C(=O)c4cc(C(F)(F)F)cc(C(F)(F)F)c4)C(Cc4ccccc4)C3)CC2)OC1=O (centres unmarked) [Compound 2.12]"
  IC50, µM: 5.01
- molecule: "Cc1nnsc1C(=O)N1CCC2(CC1)CCN(C1CCN(C(=O)c3cc(C(F)(F)F)cc(C(F)(F)F)c3)C(Cc3ccccc3)C1)C(=O)O2 (centres unmarked)"
  IC50, µM: 0.316

# lookup: IC50 of O=C(C1CCOC1)N1CCC2(CC1)CCN([C@H]1CCN(C(=O)c3cc(C(F)(F)F)cc(C(F)(F)F)c3)[C@H](Cc3ccccc3)C1)C(=O)O2 (some centres unmarked) 0.251

Record request: IC50 value, item Cn1cccc1CN1CCC2(CCN(C3CCN(C(=O)c4cc(C(F)(F)F)cc(C(F)(F)F)c4)C(Cc4ccccc4)C3)CC2)OC1=O (single isomer, unassigned) [Compound 2.10] 3.98

Name the recorded IC50 for Cc1ccccc1CN1CCC2(CCN(C3CCN(C(=O)c4cc(C(F)(F)F)cc(C(F)(F)F)c4)C(Cc4ccccc4)C3)CC2)OC1=O (centres unmarked) [Compound 2.11] . 7.94

What does the record list as IC50 for O=C1OC2(CCN1Cc1cccnc1)CCN(C1CCN(C(=O)c3cc(C(F)(F)F)cc(C(F)(F)F)c3)C(Cc3ccccc3)C1)CC2 (single isomer, unassigned) [Compound 2.17] ? 6.31

Endpoint output: IC50 of `O=C(C1CC1)N1CCC2(CC1)CCN([C@H]1CCN(C(=O)c3cc(C(F)(F)F)cc(C(F)(F)F)c3)[C@H](Cc3ccccc3)C1)C(=O)O2` . Value? 0.126

---

biological target: NK1 (Homo sapiens, UniProt P25103); assay: Signal transduction (ST), intracellular Ca++ FLIPR, NK1; format: cell-based; settings: antagonist, read-out: NK1 pIC50 (converted)
Sequence (P25103 whole entry): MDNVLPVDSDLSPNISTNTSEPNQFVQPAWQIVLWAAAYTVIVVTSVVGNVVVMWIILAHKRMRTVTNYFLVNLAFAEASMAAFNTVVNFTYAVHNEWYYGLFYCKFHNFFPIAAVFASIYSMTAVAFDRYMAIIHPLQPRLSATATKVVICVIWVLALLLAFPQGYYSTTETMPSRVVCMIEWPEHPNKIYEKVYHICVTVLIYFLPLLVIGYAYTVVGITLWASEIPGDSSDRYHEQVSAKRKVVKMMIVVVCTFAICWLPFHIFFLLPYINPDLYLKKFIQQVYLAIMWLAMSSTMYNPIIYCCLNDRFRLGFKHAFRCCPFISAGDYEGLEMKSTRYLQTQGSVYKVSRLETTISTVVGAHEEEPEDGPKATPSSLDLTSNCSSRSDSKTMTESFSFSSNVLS
measure: IC50

- compound: "O=C1OC2(CCN1Cc1ccsc1)CCN(C1CCN(C(=O)c3cc(C(F)(F)F)cc(C(F)(F)F)c3)C(Cc3ccccc3)C1)CC2 (stereo not drawn) [Compound 2.6]"
  experimental system: "NK1 (Homo sapiens, UniProt P25103)"
  IC50: "200 nM"
- compound: "O=C1OC2(CCN1Cc1ccoc1)CCN(C1CCN(C(=O)c3cc(C(F)(F)F)cc(C(F)(F)F)c3)C(Cc3ccccc3)C1)CC2 (stereo not drawn)"
  experimental system: "NK1 (Homo sapiens, UniProt P25103)"
  IC50: "251 nM"
- compound: "CC(C)(C)CN1CCC2(CCN(C3CCN(C(=O)c4cc(C(F)(F)F)cc(C(F)(F)F)c4)C(Cc4ccccc4)C3)CC2)OC1=O (single isomer, unassigned) [Compound 2.1]"
  experimental system: "NK1 (Homo sapiens, UniProt P25103)"
  IC50: "251 nM"
- compound: "CCC(CC)CN1CCC2(CCN(C3CCN(C(=O)c4cc(C(F)(F)F)cc(C(F)(F)F)c4)C(Cc4ccccc4)C3)CC2)OC1=O (single isomer, unassigned) [Compound 2.4]"
  experimental system: "NK1 (Homo sapiens, UniProt P25103)"
  IC50: "79.4 nM"
- compound: "O=C(C1CCOC1)N1CCC2(CC1)CCN([C@H]1CCN(C(=O)c3cc(C(F)(F)F)cc(C(F)(F)F)c3)[C@H](Cc3ccccc3)C1)C(=O)O2 (stereo partly drawn)"
  experimental system: "NK1 (Homo sapiens, UniProt P25103)"
  IC50: "12.6 nM"

// moving on: another record for IC50
Consider the compound O=C(C1CCOC1)N1CCC2(CC1)CCN(C1CCN(C(=O)c3cc(C(F)(F)F)cc(C(F)(F)F)c3)C(Cc3ccccc3)C1)C(=O)O2 (stereo not drawn) and give its measured IC50. 25.1 nM
